Target or test system: human αvβ3 receptor (Homo sapiens, UniProt P05106+P06756)
Sequence (P06756 31-889 limits assumed): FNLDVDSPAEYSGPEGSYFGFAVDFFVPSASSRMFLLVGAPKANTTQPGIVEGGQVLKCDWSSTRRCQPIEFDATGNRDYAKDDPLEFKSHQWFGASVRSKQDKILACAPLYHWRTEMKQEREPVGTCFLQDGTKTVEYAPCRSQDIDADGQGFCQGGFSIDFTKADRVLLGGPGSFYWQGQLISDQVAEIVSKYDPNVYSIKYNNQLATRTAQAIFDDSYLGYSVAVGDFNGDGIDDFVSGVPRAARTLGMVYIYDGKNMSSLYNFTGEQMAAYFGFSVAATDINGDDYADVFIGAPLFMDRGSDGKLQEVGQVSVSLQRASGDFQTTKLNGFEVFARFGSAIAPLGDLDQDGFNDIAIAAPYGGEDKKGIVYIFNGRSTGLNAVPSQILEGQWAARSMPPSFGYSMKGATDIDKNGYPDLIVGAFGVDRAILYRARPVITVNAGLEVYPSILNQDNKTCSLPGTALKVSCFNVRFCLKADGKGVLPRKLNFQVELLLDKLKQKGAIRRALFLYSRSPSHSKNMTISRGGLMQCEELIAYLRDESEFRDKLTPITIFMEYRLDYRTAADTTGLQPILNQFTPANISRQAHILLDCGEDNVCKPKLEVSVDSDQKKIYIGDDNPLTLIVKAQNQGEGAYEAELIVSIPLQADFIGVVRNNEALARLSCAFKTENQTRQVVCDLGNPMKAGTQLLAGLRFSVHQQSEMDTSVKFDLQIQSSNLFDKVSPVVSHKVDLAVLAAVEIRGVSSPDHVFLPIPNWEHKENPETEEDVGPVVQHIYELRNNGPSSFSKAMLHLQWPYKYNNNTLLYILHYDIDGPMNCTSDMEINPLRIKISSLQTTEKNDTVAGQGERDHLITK
Sequence (P06756 891-1048 limits assumed): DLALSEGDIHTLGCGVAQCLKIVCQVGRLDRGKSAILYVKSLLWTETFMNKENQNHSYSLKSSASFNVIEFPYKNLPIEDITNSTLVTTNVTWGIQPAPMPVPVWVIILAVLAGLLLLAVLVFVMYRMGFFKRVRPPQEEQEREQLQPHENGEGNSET
Sequence (P05106 27-788): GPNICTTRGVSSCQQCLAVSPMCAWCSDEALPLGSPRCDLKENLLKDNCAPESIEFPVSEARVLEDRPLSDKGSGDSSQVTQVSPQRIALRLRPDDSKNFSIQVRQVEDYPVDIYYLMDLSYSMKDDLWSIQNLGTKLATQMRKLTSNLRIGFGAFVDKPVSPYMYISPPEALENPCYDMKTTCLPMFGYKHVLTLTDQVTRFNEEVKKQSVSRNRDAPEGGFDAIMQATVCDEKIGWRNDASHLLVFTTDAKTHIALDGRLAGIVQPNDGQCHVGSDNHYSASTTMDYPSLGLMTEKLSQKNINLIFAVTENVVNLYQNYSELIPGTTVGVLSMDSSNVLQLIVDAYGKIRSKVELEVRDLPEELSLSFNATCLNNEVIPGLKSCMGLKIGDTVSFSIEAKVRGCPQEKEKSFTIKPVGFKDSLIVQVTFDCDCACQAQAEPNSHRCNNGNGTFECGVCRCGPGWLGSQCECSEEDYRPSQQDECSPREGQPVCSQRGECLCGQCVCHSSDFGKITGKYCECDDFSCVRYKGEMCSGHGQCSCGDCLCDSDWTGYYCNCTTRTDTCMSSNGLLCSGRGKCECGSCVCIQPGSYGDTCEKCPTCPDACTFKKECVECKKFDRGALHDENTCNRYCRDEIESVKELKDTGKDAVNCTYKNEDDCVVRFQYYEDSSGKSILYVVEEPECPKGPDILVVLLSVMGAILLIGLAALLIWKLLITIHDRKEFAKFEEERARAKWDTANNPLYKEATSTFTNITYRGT
Experimental protocol: Kistrin/Vitronectin Receptor (αvβ3) ELISA test
Experimental conditions: Kistrin-coated plates, 3 hours at ambient temperature, 4B12-HRP detection, read-out: K/VnR IC50
Readout: log10 IC50 (log10 of the value in nM)

| Compound | log10 IC50 |
| --- | --- |
| O=C(NC(CCOc1ccc(CC/C=N\NC2=NCCN2)cc1)C(=O)O)OCc1ccccc1 (racemic) [ex 3] | 2.04 |
| CC(CCc1ccc(OCCC(NC(=O)OCc2ccccc2)C(=O)O)cc1)=NNC(=N)N (mixture of isomers) [ex 2] | 3.13 |
| CC(CCc1ccc(OCCC(NC(=O)OCc2ccccc2)C(=O)O)cc1)=NNC1=NCCN1 (mixture of isomers) [ex 1] | 2.18 |
| CC(CCc1cccc(OCCC(NC(=O)OCc2ccccc2)C(=O)O)c1)=NNC1=NCCN1 (mixture of isomers) [ex 9] | 3.30 |
| CC(Cc1cccc(OCCC(NC(=O)OCc2ccccc2)C(=O)O)c1)=NNC1=NCCN1 (mixture of isomers) [ex 10] | 2.55 |
| C/C(Cc1ccc(OCCC(NC(=O)OCc2ccccc2)C(=O)O)c(F)c1)=N\NC1=NCCN1 (racemic) [ex 7] | 1.34 |
| N=C(N)NN=CCCc1cccc(OCCC(NC(=O)OCc2ccccc2)C(=O)O)c1 (mixture of isomers) [ex 11] | 3.51 |
| N=C(N)NN=CCCc1ccc(OCCC(NC(=O)OCc2ccccc2)C(=O)O)cc1 (mixture of isomers) [ex 4] | 2.65 |
| COc1cc(C/C(C)=N/NC2=NCCN2)ccc1OCCC(NC(=O)OCc1ccccc1)C(=O)O (racemic) [ex 6] | 1.08 |
| O=C(NC(CCOc1cccc(CC/C=N/NC2=NCCN2)c1)C(=O)O)OCc1ccccc1 (stereo not drawn) [ex 12] | 2.98 |
| O=C(NC(CCOc1ccc(/C=N/NC2=NCCN2)cc1)C(=O)O)OCc1ccccc1 (stereo not drawn) [ex 13] | 2.47 |
| CC(Cc1ccc(OCCC(NC(=O)OCc2ccccc2)C(=O)O)cc1)=NNC1=NCCN1 (mixture of isomers) [ex 5] | 1.34 |
